These entries and their values trace back to patent US11717477B2.

test: in vivo; conditions: female, Beagle, dog, 0.8 mg, Tmax, Lorazepam 0.8 mg (2nd), vaginal, present study
Property measured: Tmax (min)
Your answer is read as min, so omit the unit and give the number.

Determine its reported Tmax: O=C1Nc2ccc(Cl)cc2C(c2ccccc2Cl)=NC1O (stereo not shown) [Lorazepam]
10

====

What Tmax was measured for each of the following?
test: in vivo; details: female, Beagle, dog, Tmax
Where a name gives a salt, the structure may show the parent alone.

Given `CC(C)C[C@H](NC(=O)CNC(=O)[C@H](Cc1ccc(O)cc1)NC(=O)[C@H](CO)NC(=O)[C@H](Cc1c[nH]c2ccccc12)NC(=O)[C@H](Cc1cnc[nH]1)NC(=O)[C@@H]1CCC(=O)N1)C(=O)N[C@@H](CCCNC(=N)N)C(=O)N1CCC[C@H]1C(=O)NCC(N)=O` , respond with its Tmax.
≤ 5 min

Quote Tmax reported for CCN(CC)CC#CCOC(=O)C(O)(c1ccccc1)C1CCCCC1 (stereo not drawn) [Oxybutynin HCl] please.
10 min

Please list Tmax recorded for the compound CN1CCCC1c1cccnc1 (stereo not drawn)
≤ 5 min

====

experiment: in vivo; conditions: female, Beagle, dog, 0.8 mg, Cmax, Lorazepam 0.8 mg (1st), vaginal, present study
Property measured: Cmax (ng/mL)
Report the value in ng/mL with no unit label.

Entry O=C1Nc2ccc(Cl)cc2C(c2ccccc2Cl)=NC1O (stereo not shown) needs its Cmax filled in; supply it.
4

====

test: in vivo; conditions: female, Beagle, dog, 50 uL, Plasma concentration
Property measured: level at 20 min (ng/mL)
Write down the numeric answer in ng/mL and omit the unit.

Please list level at 20 min recorded for the compound `CC(C)C[C@H](NC(=O)CNC(=O)[C@H](Cc1ccc(O)cc1)NC(=O)[C@H](CO)NC(=O)[C@H](Cc1c[nH]c2ccccc12)NC(=O)[C@H](Cc1cnc[nH]1)NC(=O)[C@@H]1CCC(=O)N1)C(=O)N[C@@H](CCCNC(=N)N)C(=O)N1CCC[C@H]1C(=O)NCC(N)=O`
0.41

====

assay: in vivo; conditions: female, Beagle, dog, 0.5 mg, Tmax
Property measured: Tmax (min)
Please reply with the bare figure in min and do not write the unit itself.

Give recorded Tmax. `CC(C)C[C@H](NC(=O)CNC(=O)[C@H](Cc1ccc(O)cc1)NC(=O)[C@H](CO)NC(=O)[C@H](Cc1c[nH]c2ccccc12)NC(=O)[C@H](Cc1cnc[nH]1)NC(=O)[C@@H]1CCC(=O)N1)C(=O)N[C@@H](CCCNC(=N)N)C(=O)N1CCC[C@H]1C(=O)NCC(N)=O`
10

====

test: in vivo; conditions: female, Beagle, dog, 50 uL, Plasma concentration
Property measured: level at 245 min (ng/mL)
Number in ng/mL, nothing else.

Give the reported value of level at 245 min for this record: CC(C)C[C@H](NC(=O)CNC(=O)[C@H](Cc1ccc(O)cc1)NC(=O)[C@H](CO)NC(=O)[C@H](Cc1c[nH]c2ccccc12)NC(=O)[C@H](Cc1cnc[nH]1)NC(=O)[C@@H]1CCC(=O)N1)C(=O)N[C@@H](CCCNC(=N)N)C(=O)N1CCC[C@H]1C(=O)NCC(N)=O [GnRH, Gonadotropin-releasing hormone]
0.19
